# experiment: determined in L-pipecolate oxidase from Rehsus monkey
value type: Ki (µM)
I only need the number, in µM, no unit after it.

Q: # get_value(readout='Ki', item= O=C(O)[C@@H]1CCCCN1 [(S)-pipecolate] )
Result: 130
